# experiment: Half life in CD rat at 1 mg/kg, iv
# Format: ADME, organism-based
# Set-up: dose 1 mg/kg, route intravenous
# condition: in vivo
endpoint name: half-life (h)

P. CC(C)Oc1ncc(-c2nc(-c3ccc4c(c3)CCNCC4)no2)cc1C#N
Q. CC(C)Oc1ccc(-c2nc(-c3ccc4c(c3)CCN(C(CO)CO)C4)no2)cc1C#N
R. Cc1c(-c2noc(-c3ccc(OC(C)C)c(C#N)c3)n2)ccc2c1CCN(CC(=O)N[C@@H](C)CO)C2
S. Cc1c(-c2noc(-c3ccc(OC(C)C)c(C#N)c3)n2)ccc2c1CCN(C(CO)CO)C2
Ask | Arrange the 4 entries by half-life so the values rise. Answer by naming the labels in the order asked.
Reply | Q, S, R, P

a. CC(C)Oc1ccc(-c2nc(-c3cccc4c3OCCN(C(CO)CO)C4)no2)cc1C#N
b. Cc1c(-c2noc(-c3ccc(OC(C)C)c(C#N)c3)n2)cnc2c1CCN(C(CO)CO)C2
Ask | Lower value of half-life belongs to which: a or b ? The response must carry the label of the picked entry.
Reply | b
